Target: FRMPD2_3, Q68DX3
Sequence (Q68DX3 1073-1166): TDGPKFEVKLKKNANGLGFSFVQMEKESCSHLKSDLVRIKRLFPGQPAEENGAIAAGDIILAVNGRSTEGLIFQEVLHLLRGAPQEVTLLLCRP
Assay: holdup assay
Parameters: key: below the threshold = too weak to quantify, mostly under pKd 3.1 to 4
Conditions: plain residues with an end cap or a label only (N-terminal biotin on a linker: ado-ado)
quantity-measured: pKd

{"binder": "AQRARSPSDV [GPR12, P47775]", "quantity-measured": "pKd", "endpoint-result": "below the threshold"}
{"binder": "EIPAQSPTCV [FZD10, Q9ULW2]", "quantity-measured": "pKd", "endpoint-result": 3.77}
{"binder": "QSGLYESEEL [MYOT, Q9UBF9]", "quantity-measured": "pKd", "endpoint-result": "below the threshold"}
{"binder": "ARSAAASNYV [CLDN4, O14493]", "quantity-measured": "pKd", "endpoint-result": "below the threshold"}
